target: recombinant rat GluN1/GluN2D receptors (NR2D) (Rattus norvegicus (Rat), UniProt P35439+Q62645); assay: Two-electrode voltage-clamp recordings, Xenopus laevis oocytes, NR2D; type: cell-based; conditions: current in the absence of compound = 100%, 100 μM glutamate plus 30 μM glycine, read-out: NR2D response
Sequence (Q62645 28-1323, other chains not shown): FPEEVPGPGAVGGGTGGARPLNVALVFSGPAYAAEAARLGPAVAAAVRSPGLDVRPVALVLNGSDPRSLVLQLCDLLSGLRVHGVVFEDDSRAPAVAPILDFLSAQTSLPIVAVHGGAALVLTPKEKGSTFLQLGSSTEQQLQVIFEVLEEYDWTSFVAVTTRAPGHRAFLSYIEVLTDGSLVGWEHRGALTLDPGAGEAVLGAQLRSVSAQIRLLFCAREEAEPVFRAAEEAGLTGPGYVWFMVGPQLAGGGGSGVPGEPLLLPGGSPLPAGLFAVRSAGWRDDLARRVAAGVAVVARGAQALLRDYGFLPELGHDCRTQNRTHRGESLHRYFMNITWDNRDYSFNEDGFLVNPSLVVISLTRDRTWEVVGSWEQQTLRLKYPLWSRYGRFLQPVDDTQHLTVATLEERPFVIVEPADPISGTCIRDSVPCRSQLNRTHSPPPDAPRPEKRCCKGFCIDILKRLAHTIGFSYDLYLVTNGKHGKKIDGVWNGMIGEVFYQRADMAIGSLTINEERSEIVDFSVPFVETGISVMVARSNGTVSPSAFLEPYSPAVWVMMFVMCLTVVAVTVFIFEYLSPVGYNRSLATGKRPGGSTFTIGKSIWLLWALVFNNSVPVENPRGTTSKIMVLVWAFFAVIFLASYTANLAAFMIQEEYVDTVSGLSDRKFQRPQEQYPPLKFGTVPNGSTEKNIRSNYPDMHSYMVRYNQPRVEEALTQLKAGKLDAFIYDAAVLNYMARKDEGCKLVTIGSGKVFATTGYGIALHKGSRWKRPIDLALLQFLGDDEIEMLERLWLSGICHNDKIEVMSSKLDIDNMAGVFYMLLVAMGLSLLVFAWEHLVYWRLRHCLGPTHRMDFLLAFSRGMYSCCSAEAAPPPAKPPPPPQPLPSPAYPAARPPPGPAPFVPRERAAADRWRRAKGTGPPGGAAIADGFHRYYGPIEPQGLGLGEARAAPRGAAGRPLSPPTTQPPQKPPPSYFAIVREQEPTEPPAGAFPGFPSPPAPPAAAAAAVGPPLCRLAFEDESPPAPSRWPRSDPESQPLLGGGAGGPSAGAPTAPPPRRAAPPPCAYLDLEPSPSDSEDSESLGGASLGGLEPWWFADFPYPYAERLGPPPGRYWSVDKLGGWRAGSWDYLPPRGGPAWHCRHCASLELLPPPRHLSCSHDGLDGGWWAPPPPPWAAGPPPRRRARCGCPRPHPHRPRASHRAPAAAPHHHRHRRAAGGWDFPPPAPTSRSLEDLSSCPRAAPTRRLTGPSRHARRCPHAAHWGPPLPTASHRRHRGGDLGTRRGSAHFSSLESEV
READOUT NAME: activity at 100 µM (%)

COMPOUND	activity at 100 µM (%)
COC(=O)c1ccc(C2C(C(=O)c3cccnc3)=C(O)C(=O)N2CCc2c[nH]c3cc(F)ccc23)cc1 (centres unmarked)	64
CCOC(=O)c1ccc(C2C(C(C)=O)=C(O)C(=O)N2CCc2c[nH]c3ccccc23)cc1 (centres unmarked)	79
CCOC(=O)c1ccc(C2C(C(=O)c3cccnc3)=C(O)C(=O)N2CCc2c[nH]c3cc(C)ccc23)cc1 (centres unmarked)	69
O=C(C1=C(O)C(=O)N(CCc2c[nH]c3ccccc23)C1c1cccs1)c1cccnc1 (centres unmarked)	73
CCOC(=O)c1ccc(C2C(C(C)=O)=C(O)C(=O)N2CCc2c(C)[nH]c3ccccc23)cc1 (centres unmarked)	73

I. COC(=O)c1ccc(C2C(C(=O)c3ccncc3)=C(O)C(=O)N2CCc2c[nH]c3ccccc23)cc1 (centres unmarked)
II. COC(=O)c1ccc(C2C(C(=O)c3ccccc3Cl)=C(O)C(=O)N2CCc2c[nH]c3ccccc23)cc1 (centres unmarked)
Query: Between I and II , which one shows the larger activity at 100 µM value? When you have decided, please share the label of that item.
Reply: II

###

molecular target: recombinant rat GluN1/GluN2B receptors (NR2B) (Rattus norvegicus (Rat), UniProt P35439+Q00960); test: Two-electrode voltage-clamp recordings, Xenopus laevis oocytes, NR2B; type: cell-based; conditions: current in the absence of compound = 100%, 100 μM glutamate plus 30 μM glycine, read-out: NR2B response
Sequence (Q00960 27-1482, other chains not shown): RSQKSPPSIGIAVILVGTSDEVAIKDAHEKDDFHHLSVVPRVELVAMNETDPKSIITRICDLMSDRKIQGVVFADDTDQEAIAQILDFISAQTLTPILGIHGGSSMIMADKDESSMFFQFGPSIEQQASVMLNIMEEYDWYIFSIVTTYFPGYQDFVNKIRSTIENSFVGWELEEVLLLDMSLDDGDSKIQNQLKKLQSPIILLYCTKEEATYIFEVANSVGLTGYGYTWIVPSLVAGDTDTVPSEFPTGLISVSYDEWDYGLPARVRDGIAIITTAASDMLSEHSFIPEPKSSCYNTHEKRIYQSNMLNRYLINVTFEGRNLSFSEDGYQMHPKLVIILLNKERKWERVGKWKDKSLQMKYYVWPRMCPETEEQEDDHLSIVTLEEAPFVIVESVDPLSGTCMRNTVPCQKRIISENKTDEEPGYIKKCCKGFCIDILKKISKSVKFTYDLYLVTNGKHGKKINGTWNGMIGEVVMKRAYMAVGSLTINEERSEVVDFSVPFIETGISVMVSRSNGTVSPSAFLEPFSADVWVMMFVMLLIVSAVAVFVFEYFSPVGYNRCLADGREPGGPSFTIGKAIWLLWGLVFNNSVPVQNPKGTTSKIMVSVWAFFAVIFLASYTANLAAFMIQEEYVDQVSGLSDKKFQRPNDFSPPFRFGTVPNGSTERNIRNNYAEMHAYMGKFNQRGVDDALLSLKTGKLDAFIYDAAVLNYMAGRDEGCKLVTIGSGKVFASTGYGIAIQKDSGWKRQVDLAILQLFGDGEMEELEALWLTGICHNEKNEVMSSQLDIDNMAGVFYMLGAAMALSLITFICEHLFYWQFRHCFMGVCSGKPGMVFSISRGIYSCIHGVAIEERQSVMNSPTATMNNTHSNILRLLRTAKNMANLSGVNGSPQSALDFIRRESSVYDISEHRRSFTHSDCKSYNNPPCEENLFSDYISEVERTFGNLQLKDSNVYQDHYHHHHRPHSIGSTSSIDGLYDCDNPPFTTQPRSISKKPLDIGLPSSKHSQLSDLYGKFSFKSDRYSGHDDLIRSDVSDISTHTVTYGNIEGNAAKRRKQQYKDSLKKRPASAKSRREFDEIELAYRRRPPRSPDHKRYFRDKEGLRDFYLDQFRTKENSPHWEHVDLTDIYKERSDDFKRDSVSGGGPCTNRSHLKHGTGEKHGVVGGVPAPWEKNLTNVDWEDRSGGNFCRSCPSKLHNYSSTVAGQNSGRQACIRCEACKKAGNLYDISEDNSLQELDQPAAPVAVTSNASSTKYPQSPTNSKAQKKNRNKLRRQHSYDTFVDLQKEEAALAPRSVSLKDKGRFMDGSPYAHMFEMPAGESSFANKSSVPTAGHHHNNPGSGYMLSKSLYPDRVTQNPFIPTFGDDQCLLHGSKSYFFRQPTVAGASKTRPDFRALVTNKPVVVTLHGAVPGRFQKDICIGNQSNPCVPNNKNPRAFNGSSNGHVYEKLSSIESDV
READOUT NAME: activity at 100 µM (%)

COMPOUND	activity at 100 µM, %
COC(=O)c1ccc(C2C(C(=O)c3cccnc3)=C(O)C(=O)N2CCc2c[nH]c3cc(C)ccc23)cc1 (stereo not shown)	66
COC(=O)c1ccc(C2C(C(=O)c3ccncc3)=C(O)C(=O)N2CCc2c[nH]c3ccccc23)cc1 (stereo not shown)	72
COC(=O)c1ccc(C2C(C(=O)c3ccccc3Cl)=C(O)C(=O)N2CCc2c[nH]c3ccccc23)cc1 (stereo not shown)	72
COC(=O)c1ccc(C2C(C(C)=O)=C(O)C(=O)N2CCc2c[nH]c3ccccc23)c(OC)c1 (stereo not shown)	79

###

target: recombinant rat GluN1/GluN2A receptors (NR2A) (Rattus norvegicus (Rat), UniProt P35439+Q00959); assay: Two-electrode voltage-clamp recordings, Xenopus laevis oocytes, NR2A; assay type: cell-based; conditions: current in the absence of compound = 100%, 100 μM glutamate plus 30 μM glycine, read-out: NR2A response
Sequence (Q00959 23-1464, other chains not shown): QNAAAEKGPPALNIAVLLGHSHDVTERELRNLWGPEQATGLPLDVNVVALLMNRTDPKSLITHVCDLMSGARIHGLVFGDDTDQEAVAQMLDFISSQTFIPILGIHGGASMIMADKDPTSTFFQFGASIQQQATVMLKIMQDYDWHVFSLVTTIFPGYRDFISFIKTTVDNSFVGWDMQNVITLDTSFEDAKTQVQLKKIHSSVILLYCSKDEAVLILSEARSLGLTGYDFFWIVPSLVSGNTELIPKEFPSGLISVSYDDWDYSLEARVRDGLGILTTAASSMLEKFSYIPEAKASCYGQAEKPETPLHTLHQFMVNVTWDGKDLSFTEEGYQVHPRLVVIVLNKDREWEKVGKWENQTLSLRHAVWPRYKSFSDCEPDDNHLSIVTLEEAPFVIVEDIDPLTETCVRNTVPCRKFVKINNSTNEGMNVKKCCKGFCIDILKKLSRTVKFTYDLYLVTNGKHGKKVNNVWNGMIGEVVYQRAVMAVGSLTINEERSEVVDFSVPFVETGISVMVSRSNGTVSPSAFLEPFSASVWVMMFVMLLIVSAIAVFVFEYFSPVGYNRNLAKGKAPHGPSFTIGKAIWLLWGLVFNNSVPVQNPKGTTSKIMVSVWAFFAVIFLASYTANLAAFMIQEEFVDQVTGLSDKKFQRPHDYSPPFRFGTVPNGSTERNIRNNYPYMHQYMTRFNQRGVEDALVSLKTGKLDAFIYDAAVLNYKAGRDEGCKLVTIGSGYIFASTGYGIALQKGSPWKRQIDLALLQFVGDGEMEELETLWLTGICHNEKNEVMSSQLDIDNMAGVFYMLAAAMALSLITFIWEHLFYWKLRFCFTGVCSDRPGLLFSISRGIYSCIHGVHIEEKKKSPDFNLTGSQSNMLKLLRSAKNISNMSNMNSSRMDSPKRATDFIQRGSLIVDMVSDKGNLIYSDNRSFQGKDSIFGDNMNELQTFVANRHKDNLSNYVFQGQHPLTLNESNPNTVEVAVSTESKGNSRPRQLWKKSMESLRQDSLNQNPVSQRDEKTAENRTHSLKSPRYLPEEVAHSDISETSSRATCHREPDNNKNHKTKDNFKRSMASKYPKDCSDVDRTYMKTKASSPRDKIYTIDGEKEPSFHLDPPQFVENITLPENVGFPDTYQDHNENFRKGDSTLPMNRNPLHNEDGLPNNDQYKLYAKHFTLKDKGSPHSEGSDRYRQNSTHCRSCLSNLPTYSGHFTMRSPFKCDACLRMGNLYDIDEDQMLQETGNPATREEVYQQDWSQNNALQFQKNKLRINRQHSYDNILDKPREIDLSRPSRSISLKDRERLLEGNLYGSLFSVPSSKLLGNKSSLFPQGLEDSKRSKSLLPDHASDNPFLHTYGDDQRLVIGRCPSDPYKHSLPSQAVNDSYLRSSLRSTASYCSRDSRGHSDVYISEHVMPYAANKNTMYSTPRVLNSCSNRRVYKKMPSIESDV
READOUT NAME: activity at 100 µM (%)

COMPOUND	activity at 100 µM, %
COC(=O)c1ccc(C2C(C(=O)c3ccncc3)=C(O)C(=O)N2CCc2ccncc2)cc1 (stereo not drawn)	103
COC(=O)c1ccc(C2C(C(C)=O)=C(O)C(=O)N2CCc2c[nH]c3ccccc23)c(O)c1 (stereo not drawn)	102
COC(=O)c1ccc(C2C(C(=O)c3cccc(O)c3)=C(O)C(=O)N2CCc2c[nH]c3ccccc23)cc1 (stereo not drawn)	76
COC(=O)c1ccc(C2C(C(=O)c3cccnc3)=C(O)C(=O)N2CCc2c[nH]c3cc(F)ccc23)cc1 (stereo not drawn)	80

a. CCOC(=O)c1ccc(C2C(C(C)=O)=C(O)C(=O)N2CCc2c(C)[nH]c3ccccc23)cc1 (stereo not drawn)
b. O=C(C1=C(O)C(=O)N(CCc2c[nH]c3ccccc23)C1c1cccs1)c1cccnc1 (stereo not drawn)
Query: Between a and b , which one shows the larger activity at 100 µM value? When you have decided, please share the label of that item.
Reply: a
(a: 89%, b: 43%)

I. COC(=O)c1ccc(C2C(C(C)=O)=C(O)C(=O)N2CCc2c[nH]c3ccccc23)c(OC)c1 (stereo not drawn)
II. COC(=O)c1ccc(C2C(C(=O)c3ccccc3Cl)=C(O)C(=O)N2CCc2c[nH]c3ccccc23)cc1 (stereo not drawn)
Query: Please let me know which one, I or II , has a lower measured activity at 100 µM value. When you have decided, please share the label of that item.
Reply: II
(II: 68%, I: 99%)
